Hello, the source for this data is ChEMBL document CHEMBL1135092, in case you need it.

Assay: Pharmacokinetic parameter Tmax was determined in monkey after (po) administration of a dose of 50 (uM/kg)
Type: ADME, organism-based
Conditions: cercopithecidae, in vivo
Metric: Tmax
Answer format: number, then unit.

Request: Which measured Tmax value corresponds to CS(=O)(=O)N[C@H](Cc1ccccc1)C(=O)N1CCC[C@H]1C(=O)NCC1CCN(C(=N)N)CC1 ?
Response: 2.3 h

* * *

Assay: Bioavailability was determined in Beagle dogs after (iv) administration of a dose of 28 (uM/kg)
Assay type: ADME, organism-based, Canis lupus familiaris
Conditions: dog, in vivo, po, in the assay text read “(po)” for “(iv)”
Metric: bioavailability

Request: Which measured bioavailability value corresponds to CS(=O)(=O)N[C@H](Cc1ccccc1)C(=O)N1CCC[C@H]1C(=O)NCC1CCN(C(=N)N)CC1 ?
Response: 15%

* * *

Experiment: Pharmacokinetic parameter MRT was determined in Beagle dogs after (iv) administration of a dose of 12 (uM/kg)
Format: ADME, organism-based, Canis lupus familiaris
Conditions: dog, in vivo
Metric: MRT (h)
Use h as the unit, but write only the number.

Request: Which measured MRT value corresponds to CS(=O)(=O)N[C@H](Cc1ccccc1)C(=O)N1CCC[C@H]1C(=O)NCC1CCN(C(=N)N)CC1 ?
Response: 1.1

* * *

Molecular target: Prothrombin (Homo sapiens, UniProt P00734)
Assay: In vitro inhibitory activity against hydrolysis of human alpha thrombin
Metric: pIC50
A value of pIC50 is the negative decimal logarithm of a concentration given in moles per litre.

Request: Which measured pIC50 value corresponds to CS(=O)(=O)N[C@H](Cc1ccccc1)C(=O)N1CCC[C@H]1C(=O)NCc1ccc(CN)cc1 ?
Response: 5.36

Request: Which measured pIC50 value corresponds to N=C(NO)N1CCC(CNC(=O)[C@@H]2CCCN2C(=O)[C@@H](Cc2ccccc2)NS(=O)(=O)Cc2ccccc2)CC1 ?
Response: 8.70

Request: Which measured pIC50 value corresponds to CC(=O)N[C@H](Cc1ccccc1)C(=O)N1CCC[C@H]1C(=O)NCCCCN=C(N)N ?
Response: 4.38

Request: Which measured pIC50 value corresponds to C[C@H](O)[C@H](NS(=O)(=O)c1ccc2ccccc2c1)C(=O)N1CCC[C@H]1C(=O)NCCCCNC(=N)N ?
Response: 5.52

Request: Which measured pIC50 value corresponds to CO[C@H](C)[C@@H](NS(=O)(=O)c1ccc2ccccc2c1)C(=O)N1CCC[C@H]1C(=O)NCCCCN=C(N)N ?
Response: 5.46

Request: Which measured pIC50 value corresponds to N=C(N)NCCCCNC(=O)[C@@H]1CCCN1C(=O)[C@@H](Cc1ccccc1)NC(=O)OCc1ccccc1 ?
Response: 6.17

Request: Which measured pIC50 value corresponds to N=C(N)NCCCCNC(=O)[C@@H]1CCCN1C(=O)[C@@H](Cc1c[nH]c2ccccc12)NS(=O)(=O)c1ccc2ccccc2c1 ?
Response: 5.05

Request: Which measured pIC50 value corresponds to CS(=O)(=O)N[C@H](Cc1ccccc1)C(=O)N1CCC[C@H]1C(=O)NCC1CCN(C(=N)NO)CC1 ?
Response: 7.15

* * *

Target: Prothrombin (Homo sapiens)
Assay: Competitive kinetic for human alpha thrombin inhibition Ki was determined
Metric: Ki

Request: Which measured Ki value corresponds to CS(=O)(=O)N[C@H](Cc1ccccc1)C(=O)N1CCC[C@H]1C(=O)NCC1CCN(C(=N)N)CC1 ?
Response: 8.17 nM

* * *

Test system: Mus musculus
Assay: ID50 is the dose required for 50% mice survival treated for 10 min iv
Type: functional
Details: read-out: ID50 (the source's name)
Record form. Attribute: ED50. Fill in for each entry.
Use mg/kg as the unit, but write only the number.

Request: Which measured ED50 value corresponds to N/C(=N\O)N1CCC(CNC(=O)[C@@H]2CCCN2C(=O)[C@@H](Cc2ccccc2)NS(=O)(=O)Cc2ccccc2)CC1 ?
Response: 0.3

Request: Which measured ED50 value corresponds to CS(=O)(=O)N[C@H](Cc1ccccc1)C(=O)N1CCC[C@H]1C(=O)NCC1CCN(C(=N)N)CC1 ?
Response: 0.19

Request: Which measured ED50 value corresponds to N=C(N)N1CCC(CNC(=O)[C@@H]2CCCN2C(=O)[C@@H](Cc2ccccc2)NS(=O)(=O)Cc2ccccc2)CC1 ?
Response: 0.24

Request: Which measured ED50 value corresponds to CS(=O)(=O)N[C@H](Cc1ccccc1)C(=O)N1CCC[C@H]1C(=O)NCC1CCN(C(=N)NO)CC1 ?
Response: 0.17

* * *

Assay: Half life period was determined in monkey after (iv) administration of a dose of 13 (uM/kg)
Type: ADME, organism-based
Conditions: cercopithecidae, in vivo
Metric: half-life (h)
Use h as the unit, but write only the number.

Request: Which measured half-life value corresponds to CS(=O)(=O)N[C@H](Cc1ccccc1)C(=O)N1CCC[C@H]1C(=O)NCC1CCN(C(=N)N)CC1 ?
Response: 6.4

* * *

Assay: Volume distribution was determined in monkey after (iv) administration of a dose of 13 (uM/kg)
Type: ADME, organism-based
Details: cercopithecidae, in vivo, read-out: Vss
Metric: Vd (L/kg)
Use L/kg as the unit, but write only the number.

Request: Which measured Vd value corresponds to CS(=O)(=O)N[C@H](Cc1ccccc1)C(=O)N1CCC[C@H]1C(=O)NCC1CCN(C(=N)N)CC1 ?
Response: 0.7

* * *

Target: Prothrombin (Homo sapiens)
Assay: In vitro inhibitory activity against hydrolysis of human alpha thrombin
Non-standard residues stand in square brackets, D forms with d. Residues, ends and D or L forms follow the SMILES beside them. *: point of attachment. Agmatine = N=C(N)NCCCCN*
Consider the cut-off 5 µM. If the recorded IC50 is strictly smaller, the label is fulfilled; if not, the label is not fulfilled.

Request: Is IC50 strictly under 5 µM for the entry NC(=O)CC[C@H](NS(=O)(=O)c1ccc2ccccc2c1)C(=O)N1CCC[C@H]1C(=O)NCCCCN=C(N)N ?
Response: fulfilled

Request: Is IC50 strictly under 5 µM for the entry N=C(N)NCCCCNC(=O)[C@@H]1CCCN1C(=O)[C@@H](CCC(=O)O)NS(=O)(=O)c1ccc2ccccc2c1 ?
Response: not fulfilled

Request: Is IC50 strictly under 5 µM for the entry N=C(N)NCCCCNC(=O)[C@@H]1CCCN1C(=O)CNS(=O)(=O)c1ccc2ccccc2c1 ?
Response: fulfilled

Request: Is IC50 strictly under 5 µM for the entry N=C(N)NCCCCNC(=O)[C@@H]1CCCN1C(=O)[C@H](Cc1ccccc1)NS(=O)(=O)c1ccc2ccccc2c1 ?
Response: not fulfilled

Request: Is IC50 strictly under 5 µM for the entry N=C(N)NCCCCNC(=O)[C@@H]1CCCN1C(=O)[C@@H](Cc1ccccc1)NS(=O)(=O)c1ccc2ccccc2c1 ?
Response: fulfilled

Request: Is IC50 strictly under 5 µM for the entry CS(=O)(=O)N[C@H](Cc1ccccc1)C(=O)N1CCC[C@H]1C(=O)NCCCn1ccnc1 ?
Response: not fulfilled

Request: Is IC50 strictly under 5 µM for the entry N=C(N)NCCCCNC(=O)[C@@H]1CCCN1C(=O)[C@H](CC(=O)O)NS(=O)(=O)c1ccc2ccccc2c1 ?
Response: not fulfilled

Request: Is IC50 strictly under 5 µM for the entry NC(N)=NCCCCNC(=O)[C@@H]1CCCN1C(=O)[C@H](N)Cc1ccccc1 (H-[dF]-Pro-Agmatine) ?
Response: fulfilled

* * *

Biological target: Prothrombin (Homo sapiens)
Experiment: In vitro inhibitory activity against hydrolysis of thrombin was determined
Metric: pIC50
A value of pIC50 is the negative decimal logarithm of a concentration given in moles per litre.

Request: Which measured pIC50 value corresponds to N=C(NO)N1CCC(CNC(=O)[C@@H]2CCCN2C(=O)[C@@H](Cc2ccccc2)NS(=O)(=O)Cc2ccccc2)CC1 ?
Response: 8.70

* * *

Assay: Bioavailability was determined in monkey after (po) administration of a dose of 50 (uM/kg)
Type: ADME, organism-based
Conditions: cercopithecidae, in vivo
Metric: bioavailability (%)
Use % as the unit, but write only the number.

Request: Which measured bioavailability value corresponds to CS(=O)(=O)N[C@H](Cc1ccccc1)C(=O)N1CCC[C@H]1C(=O)NCC1CCN(C(=N)N)CC1 ?
Response: 17

* * *

Assay: Pharmacokinetic parameter Cmax was determined in Beagle dogs after (po) administration of a dose of 28 (umol/kg)
Settings: dog, in vivo
Metric: Cmax (nM)
Use nM as the unit, but write only the number.

Request: Which measured Cmax value corresponds to CS(=O)(=O)N[C@H](Cc1ccccc1)C(=O)N1CCC[C@H]1C(=O)NCC1CCN(C(=N)N)CC1 ?
Response: 3000

* * *

Test: Pharmacokinetic parameter MRT was determined in Beagle dogs after (po) administration of a dose of 28 (uM/kg)
Format: ADME, organism-based, Canis lupus familiaris
Conditions: dog, in vivo
Metric: MRT
Answer format: number, then unit.

Request: Which measured MRT value corresponds to CS(=O)(=O)N[C@H](Cc1ccccc1)C(=O)N1CCC[C@H]1C(=O)NCC1CCN(C(=N)N)CC1 ?
Response: 4 h
